Every entry's value here was drawn from PubChem BioAssay (Tox21).

Target: D(2) dopamine receptor (Homo sapiens) (UniProt P14416)
Sequence (P14416 whole entry, looked up): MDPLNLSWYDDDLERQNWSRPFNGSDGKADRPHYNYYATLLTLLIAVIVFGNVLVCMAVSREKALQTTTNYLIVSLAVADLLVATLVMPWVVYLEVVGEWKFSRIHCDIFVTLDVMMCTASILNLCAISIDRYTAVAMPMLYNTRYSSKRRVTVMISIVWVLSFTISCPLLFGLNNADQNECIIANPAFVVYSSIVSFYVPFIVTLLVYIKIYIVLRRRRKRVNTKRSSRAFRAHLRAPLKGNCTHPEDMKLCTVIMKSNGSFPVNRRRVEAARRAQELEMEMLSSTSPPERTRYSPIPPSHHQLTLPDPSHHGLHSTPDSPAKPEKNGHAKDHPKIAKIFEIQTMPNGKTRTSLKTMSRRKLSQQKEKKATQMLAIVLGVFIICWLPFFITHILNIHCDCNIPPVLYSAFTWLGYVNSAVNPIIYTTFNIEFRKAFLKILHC
Assay: Dopamine D2 receptor (DRD2) small molecule agonists, cell-based qHTS assay (AID 1963594); also: nearly all actives have a fitted effect of over 35% in size
Details: HEK293-DRD2 cAMP HTRF, agonist mode, 30 min; series mostly up to 92.4 µM
Records with an inconclusive call do not appear. Activity calls are given as the source filed them. Calls follow the shape of the full dose curve.
Possible outcomes: active, inactive

- compound: "CCSC(=O)N(CC)C1CCCCC1"
  class name: "inactive"
- compound: "COC(=O)/C=C(\\C)OP(=O)(OC)OC"
  class name: "inactive"
- compound: "COc1cc(CC(C)N)c(OC)cc1Br (configuration not stated)"
  class name: "active"
- compound: "CC1CCCCC1NC(=O)Nc1ccccc1 (configuration not stated)"
  class name: "inactive"
- compound: "C[C@]12CC[C@@H]3c4ccc(OC(=O)N(CCCl)CCCl)cc4CC[C@H]3[C@@H]1CC[C@@H]2O"
  class name: "inactive"
- compound: "CCC1CCC(=O)O1 (configuration not stated)"
  class name: "inactive"
- compound: "NC1CCC(CC2CCC(N)CC2)CC1 (configuration not stated)"
  class name: "inactive"
